# SYSTEM TESTED: T1, IL10Rα/IL2Rγ receptor (human, UniProt Q13651 22-578; P31785 23-369)
# T1 sequence (looked up) 1: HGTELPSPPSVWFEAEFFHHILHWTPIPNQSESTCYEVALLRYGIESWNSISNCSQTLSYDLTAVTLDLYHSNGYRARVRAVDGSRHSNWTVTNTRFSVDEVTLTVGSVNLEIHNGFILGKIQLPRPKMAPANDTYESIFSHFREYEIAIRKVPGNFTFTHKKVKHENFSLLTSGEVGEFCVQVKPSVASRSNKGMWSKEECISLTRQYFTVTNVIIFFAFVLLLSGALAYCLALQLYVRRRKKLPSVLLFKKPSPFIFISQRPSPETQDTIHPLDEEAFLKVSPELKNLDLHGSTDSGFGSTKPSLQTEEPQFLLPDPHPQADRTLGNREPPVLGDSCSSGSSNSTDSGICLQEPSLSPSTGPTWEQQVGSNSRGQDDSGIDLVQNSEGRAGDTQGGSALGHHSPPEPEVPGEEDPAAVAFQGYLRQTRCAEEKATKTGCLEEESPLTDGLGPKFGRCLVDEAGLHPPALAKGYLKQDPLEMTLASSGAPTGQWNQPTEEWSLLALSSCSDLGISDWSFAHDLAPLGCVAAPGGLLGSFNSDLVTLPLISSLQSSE
# T1 sequence (looked up) 2: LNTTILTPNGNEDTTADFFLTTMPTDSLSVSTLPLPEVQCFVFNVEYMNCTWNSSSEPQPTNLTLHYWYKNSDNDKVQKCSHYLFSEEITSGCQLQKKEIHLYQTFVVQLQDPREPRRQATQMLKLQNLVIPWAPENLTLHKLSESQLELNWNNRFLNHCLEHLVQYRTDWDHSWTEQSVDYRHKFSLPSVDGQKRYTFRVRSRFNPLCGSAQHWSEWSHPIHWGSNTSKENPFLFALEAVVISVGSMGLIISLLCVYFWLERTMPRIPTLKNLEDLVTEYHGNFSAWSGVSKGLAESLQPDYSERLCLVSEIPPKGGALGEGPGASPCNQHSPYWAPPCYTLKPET
# ASSAY EXPLANATION: cell-based or functional assay
OBSERVATION TYPE: pSTAT3 MFI, B cells, 0.01 nM (unstimulated 1193.5) (MFI)
Unit MFI implied. Number only.

Please report the recorded pSTAT3 MFI, B cells, 0.01 nM (unstimulated 1193.5) for DR471(DR241-DR231) (bispecific antibody) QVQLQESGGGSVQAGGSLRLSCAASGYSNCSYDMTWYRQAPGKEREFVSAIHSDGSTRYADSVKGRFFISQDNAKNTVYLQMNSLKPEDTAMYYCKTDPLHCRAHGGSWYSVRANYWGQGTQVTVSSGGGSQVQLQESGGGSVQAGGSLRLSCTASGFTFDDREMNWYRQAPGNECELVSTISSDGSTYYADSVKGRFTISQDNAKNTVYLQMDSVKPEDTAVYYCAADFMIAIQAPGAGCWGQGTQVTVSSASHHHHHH .
1110
